All figures here come from a melting point compilation (Tetko et al.; mined from patent text by program, amines drawn as free bases though some values may be those of a salt).

measurement.kind: melting point

compound	value.measured
CSc1ncnn1C[C@]1(c2cccc(F)c2)O[C@@H]1c1ccccc1Cl (relative stereo)	98 °C
Cc1cc(=O)n2c3c(cc(C(O)(C(F)(F)F)C(F)(F)F)cc13)CCCC2	169 to 171 °C
COc1ccc(C(=C2CN(C(c3ccccc3)c3ccccc3)C2)S(C)(=O)=O)cc1	181 °C
COc1ccc(C2CC(c3ccccc3OC)=NN2c2ccc(C(=O)O)cc2)cc1 (centres undefined)	243 °C
Cc1ccc(C(C)N(O)C(=O)c2ccc(S(C)(=O)=O)cc2)o1 (centres undefined)	177 °C
OC1c2ccc(F)cc2SC1Cn1ccnc1 (centres undefined)	165 to 166 °C

Query :: Which melting point is reported for this compound? CCOC(=O)c1ccccc1NC(=O)c1oc2nn(C(C)C)c(C)c2c1C
Result :: 155 to 158 °C

Query :: One more compound: O=C1CCc2c1cccc2C(F)(F)F
Result :: 32 to 36 °C

Query :: Thanks! And COc1ccc(C(=O)Nc2ccc3ccc(Oc4ccccc4OC)nc3n2)cc1 ?
Result :: 168 to 170 °C

Query :: Would you mind doing CC1(O)CCC(=O)N(O)C1 (centres undefined) as well?
Result :: 98 to 100 °C

Query :: Subsequent entry: Cn1c2cc(Cl)cc(Cl)c2c2cc(C(=O)O)sc21
Result :: 278 to 281 °C

* * *

Property: melting point; scope: individual compounds

These recorded examples may help you get a feel for the data.
compound	melting point
Cn1c(SC(C(N)=O)c2ccccc2)nc2ccccc21 (stereo not drawn)	185 to 187 °C
C=Cc1cc(O)cc2cc(-c3ccc(O)cc3)oc12	182 to 184 °C

Query :: Record request: melting point value, item COCNC(=O)C1CN(C(c2ccccc2)c2ccccc2)C1
Result :: 103 to 106 °C

* * *

measurement.kind: melting point

Worked examples follow.
compound	melting point
CS(=O)Cc1cc(C(F)(F)F)ccc1N (stereo not drawn)	122 to 125 °C
CN(Cc1cccc2c1C(=O)N(C1CCC(=O)NC1=O)C2=O)C(=O)C1CC1 (stereo not drawn)	243 to 245 °C
CNC(=O)Nc1cc2c(c3c1OC(C)(C)C3)C(c1ccccc1)=NC(C)(C)C2	209 to 211 °C
C[C@H](O)Cn1c(=O)c(Oc2ccc(F)cc2F)cc2cnc(N[C@@H](C)CO)nc21	182 to 184 °C
CC=Cc1cc(OC)c(OC)cc1Cc1cnc(N)nc1N	204 to 208 °C
COc1cc(C)c(S(C)(=O)=O)cc1C(=O)O	228 °C

Query :: # query: melting point of entry CCCCCCCCCCCCCCCCCCNC(=O)O[C@H]1CCCO[C@H]1CO (relative stereo)
Result :: 85 to 86 °C

Query :: Entry to check: O=c1ccc2cc(OC3CCC4(CCNCC4)CC3)ccc2o1
Result :: 193 to 194 °C

* * *

Listed molecules paired with reported melting point

Illustrative cases are given below, each with its answer.
molecule	melting point
CCOC(=O)N1CCC(c2ccc3nc(-c4ccc(S(C)(=O)=O)cc4F)oc3c2)CC1	154 to 158 °C
CCCCCC(=O)Nc1cccc2c1C1(COc3cc4c(cc31)OCCO4)C(=O)N2C (centres undefined)	151 to 153 °C
CCCOc1ccc(S(=O)(=O)N2CCN(CC)CC2)cc1C(=O)Nc1c(C(N)=O)nn(Cc2ccccn2)c1CC	191 to 192 °C
COc1cc(C(=O)c2ccc(OCc3ccccc3)cc2N)cc(OC)c1OC	79 to 80 °C
O=C(Nc1ccc2ccc(Cl)nc2n1)N1CC=CCC1	173 °C

Query :: Any idea what melting point was measured for Cc1cc(C)c(N2CCCc3c2nn(C)c3Br)c(Cl)c1 ?
Result :: 106 to 107 °C

Query :: Another molecule: CCCCCCCCCCCCCCCCCCNC(=O)C=Cc1ccc(O)cc1
Result :: 114 °C

Query :: Could you do the same for CC(=O)NC[C@H]1CN(c2cc(F)c(N3CCC(n4nnnc4CS(C)(=O)=O)CC3)c(F)c2)C(=O)O1 , please?
Result :: 192 °C

Query :: Repeat with CCOC(=O)c1cn(CCO)c2nc(N3CCN(C(=O)OCC)CC3)c(F)cc2c1=O
Result :: 215 to 217 °C

* * *

measurement.kind: melting point

Consider the reported melting point for these compounds:
compound	melting point
CCC(=O)c1ccc(O)c(C(C)C)c1	105 °C
C[C@H]1CCCN(C(=O)Cc2ccc(Cl)c(Cl)c2)[C@H]1C=O (relative stereo)	97 to 98 °C

// moving on: another record for melting point
Query :: Please look up its melting point: CC(C)c1cccc(C(C)C)c1NC(=O)C(N)Cc1ccc(OCc2ccccc2)cc1 (stereo not drawn)
Result :: 117 to 122 °C

* * *

measurement.kind: melting point

Query :: Quick one: melting point for O=C(Nc1cccc(C(F)(F)F)c1)NC1CCN(S(=O)(=O)c2ccc(Cl)cc2)CC1 ?
Result :: 116 to 118 °C

Query :: Cool, now Cc1nc2cccc(C3CC3CN3C(=O)c4ccccc4C3=O)c2s1 (stereo unspecified)
Result :: 151 to 153 °C

Query :: Now consider COc1cc(OC)nc(NC(=O)NS(=O)(=O)c2c(Cl)cccc2Cn2cncn2)n1 and answer again.
Result :: 220 to 221 °C

Query :: What do you get for COC(=O)CCc1cc2cc(Cl)ccc2n1S(=O)(=O)c1ccc(C#N)cc1 ?
Result :: 155 to 159 °C

Query :: Could you do the same for Cc1nc2c(-c3ccc(N4CCN(C)CC4)cc3)cnn2c(N)c1-c1ccc(F)c(Cl)c1 , please?
Result :: 264 to 265 °C

Query :: Repeat for the following compound: CCOC(=O)c1c[nH]c2cc(C(=O)NC3CCN(Cc4ccccc4)CC3)nn2c1=O
Result :: 264 to 266 °C

Query :: Could you do the same for Cc1cc(Oc2ncc(Cl)cc2Cl)cc(C)c1N=C=NC(C)(C)C , please?
Result :: 69 to 71 °C

Query :: Proceed to CC(C)(C)c1ncc(O)c(Cl)n1
Result :: 108 °C

Query :: Param item: C=CCC1(CC=C)c2cc(Br)ccc2-c2ccc(Br)cc21
Result :: 149 to 150 °C

Query :: Same thing, different compound: CCN(CC)C(=O)Nc1ccc(S(=O)(=O)N2C(=O)C(NCCCCCNC(C)=O)(c3ccccc3Cl)c3cc(Cl)ccc32)cc1 (stereo unspecified)
Result :: 195 to 198 °C

Query :: How about this compound: O=c1[nH]c2ccccc2cc1-c1csc(-c2cccnc2)n1
Result :: 197 to 198 °C

* * *

Reported melting point values follow for various compounds

compound	melting point
CCOC(=O)C(CC(=O)O)(C(=O)OCC)n1cccc1	93 to 94 °C

Query :: What melting point value was documented for this compound, Cc1cccc(C(=O)c2[nH]c3cc(Cl)ccc3c2NC(=O)N(C)C)c1 ?
Result :: 198 to 200 °C

Query :: Do the same for COC(=O)c1cc(-c2ccccc2Cl)c(=O)n2ncc3ccc(Cl)cc3c12 please
Result :: 200 to 202 °C

Query :: And what about the compound CCOC(=O)c1ccc(C=Cc2cc3ccccc3s2)s1 ?
Result :: 116 to 117 °C

Query :: Please answer likewise for Cc1c(OCc2ccc(CC(C)C)cc2)ccc(C(=O)Nc2ccccc2OCCCC(=O)O)c1C
Result :: 143 °C

* * *

measurement.kind: melting point

Known melting point results, listed for orientation:
compound	melting point
CC(C)C(C)(C#N)N1C(=O)c2cccc(O)c2C1=O (stereo not drawn)	110 to 111 °C
O=S(=O)(c1ccccc1)n1c(Sc2cc(Cl)cc(Cl)c2)cc2cc(Cl)ccc21	121 to 122 °C
CC(=CC(=O)O)C[N+](=O)[O-]	85 °C
CC(C)(C)NC(=O)C(=O)c1ccccc1	76 to 77 °C
ClCCOc1cccc2c1OCCO2	73 °C

Query :: So what's the measured melting point for this one? Cc1cccc2c(Nc3cccc(OCCCCN(CCCl)CCCl)c3)c3cccc(C(=O)NCCN(C)C)c3nc12
Result :: 131 to 132 °C

Query :: Could you do the same for CC(C)(C)CC(=O)c1c(-c2ccc3c(Br)c(OCC(=O)O)ccc3c2)oc2ccccc12 , please?
Result :: 151 to 153 °C

* * *

measurement.kind: melting point

molecule	melting point
O=C(N[C@H](Cc1cccc(C(F)(F)F)c1)[C@@H](O)c1ccc(F)cc1)c1cccc2ccccc12 (racemic)	158 to 159 °C
CC(C)(C)NC(=S)Nc1cc(Br)cc(Br)c1	172 to 174 °C
COCOc1ccc(CCC(=O)c2c(OC)cc(OC)c(CCC(C)C)c2O)cc1OC	69 to 70 °C
CCC(=C(c1ccccc1)c1ccc(C=CC(=O)OC)cc1)c1ccccc1	133 to 135 °C
COc1cccc2c1CC(C(=O)O)N2C(=O)OC(C)(C)C (centres undefined)	148 to 150 °C
CC1(C)CCC(C)(C)c2cc(C(N)C(=O)Nc3ccc(C(=O)O)c(O)c3)ccc21 (centres undefined)	240 to 241 °C
O=C(NCCCC1OCC(c2cccc3ccccc23)CO1)C(F)(F)F (centres undefined)	83 to 84 °C
CC(C)NC1=NS(=O)(=O)c2cccc(Cl)c2N1	124 to 125 °C
N#CCc1c[nH]c2ccc(NC(=O)Nc3ccccc3)cc12	217 to 219 °C
CCCCCCNc1ncnc(N(C)C)c1N	123 to 125 °C

# evaluate next
Query :: Which melting point is listed for COc1ccc(N2CCN(c3c(C)c(C)c4c(c3C)CC(C)(CN3CCC(=O)CC3)O4)CC2)cc1 (centres undefined) ?
Result :: 123 to 127 °C
